# Measurement target: recombinant PRL-3 (Homo sapiens, UniProt O75365)
# Construct: 6xHis (N, cleaved yes); made in house; host or cells: E. coli One Shot BL21 Star
# Sequence (O75365 whole entry): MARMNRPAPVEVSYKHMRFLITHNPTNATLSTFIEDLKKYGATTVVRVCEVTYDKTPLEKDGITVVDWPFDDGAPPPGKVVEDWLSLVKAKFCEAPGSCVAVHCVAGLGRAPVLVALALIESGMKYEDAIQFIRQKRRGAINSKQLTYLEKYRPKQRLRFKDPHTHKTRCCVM
# Test summary: In vitro phosphatase assay (DiFMUP hydrolysis), PRL-3; note: test concentration or dose not given here
# Format: biochemical
# Experimental context: FDA-approved drug screen; compared to DMSO
Outcome measure: % Phosphatase Activity (compared to DMSO) PRL-3 (%)
Respond numerically; units are % and should not be typed.

What value of % Phosphatase Activity (compared to DMSO) PRL-3 has been recorded for this entry: OC(Cn1cncn1)(Cn1cncn1)c1ccc(F)cc1F 76

Value lookup for % Phosphatase Activity (compared to DMSO) PRL-3; key = CC1=NS(=O)(=O)c2cc(Cl)ccc2N1 [Diazoxide] 89

Fill blank: measured % Phosphatase Activity (compared to DMSO) PRL-3 of the molecule CC(C)c1cc(-c2n[nH]c(=O)n2-c2ccc3c(ccn3C)c2)c(O)cc1O [Ganetespib (STA-9090)] is ____. 89

Bench note: what % Phosphatase Activity (compared to DMSO) PRL-3 did Cc1cc(O)cc(C)c1Cl show? 92

Which % Phosphatase Activity (compared to DMSO) PRL-3 reading was recorded for the molecule O=c1ccc2ccc(OCCCCN3CCN(c4cccc5sccc45)CC3)cc2[nH]1 ? 92

Looking for the measured % Phosphatase Activity (compared to DMSO) PRL-3 of N[C@@H](CSCCCO)C(=O)O , can you help? 92

// query % Phosphatase Activity (compared to DMSO) PRL-3 value for entry S=C(NCc1ccc2c(c1)OCO2)N1CCN(c2ncnc3c2oc2ccccc23)CC1 76

Requested read-out: % Phosphatase Activity (compared to DMSO) PRL-3. Entry: CCCCCN(C)CCC(O)(P(=O)([O-])O)P(=O)(O)O.[Na+] [Ibandronate sodium] 109

Look up % Phosphatase Activity (compared to DMSO) PRL-3 for this molecule: C[C@]12C=CC(=O)N[C@@H]1CC[C@@H]1[C@@H]2CC[C@]2(C)[C@@H](C(=O)Nc3cc(C(F)(F)F)ccc3C(F)(F)F)CC[C@@H]12 [Dutasteride] 82

###

# Measurement target: recombinant PRL-1 (Homo sapiens)
# Construct: 6xHis (N, cleaved yes); made in house; host or cells: E. coli One Shot BL21 Star
# Sequence (Q93096 whole entry): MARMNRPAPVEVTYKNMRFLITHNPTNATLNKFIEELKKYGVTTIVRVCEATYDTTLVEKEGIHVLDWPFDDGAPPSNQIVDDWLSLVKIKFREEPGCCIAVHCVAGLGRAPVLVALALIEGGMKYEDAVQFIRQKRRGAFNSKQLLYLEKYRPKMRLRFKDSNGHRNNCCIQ
# Test summary: In vitro phosphatase assay (DiFMUP hydrolysis), PRL-1; note: test concentration or dose not given here
# Type: biochemical
# Experimental context: FDA-approved drug screen; compared to DMSO
Structures can show the parent of a compound that is named as a salt.
Outcome measure: % Phosphatase Activity (compared to DMSO) PRL-1 (%)
Kindly provide the numeric value in % only, without the unit symbol.

For the compound shown here, CC(C)[N+]1(C)[C@@H]2CC[C@H]1C[C@@H](OC(=O)C(CO)c1ccccc1)C2 (stereo partly shown) [Ipratropium Bromide] , give the reported % Phosphatase Activity (compared to DMSO) PRL-1. 103

Requested field: % Phosphatase Activity (compared to DMSO) PRL-1. Item: CN[C@H]1C[C@@H](N)[C@H](O)[C@@H](O[C@@H]2O[C@H](CO)[C@H](O)[C@@H]3OC4(O[C@H]23)O[C@H]([C@@H](N)CO)[C@H](O)[C@H](O)[C@H]4O)[C@@H]1O (stereo partly shown) [Hygromycin B] 91

I am curious: what % Phosphatase Activity (compared to DMSO) PRL-1 value has been reported for Cc1c(C(N)=O)cc([N+](=O)[O-])cc1[N+](=O)[O-] [Dinitolmide] ? 107

Quick one: % Phosphatase Activity (compared to DMSO) PRL-1 of CCOC(=O)c1ccc(N)cc1.Cl [Benzocaine hydrochloride] ? 100

Please report the recorded % Phosphatase Activity (compared to DMSO) PRL-1 for COC(=O)N[C@H](C(=O)N[C@@H](Cc1ccccc1)[C@@H](O)CN(Cc1ccc(-c2ccccn2)cc1)NC(=O)[C@@H](NC(=O)OC)C(C)(C)C)C(C)(C)C.O=S(=O)(O)O [Atazanavir Sulfate] . 95

If you can, please state the reported % Phosphatase Activity (compared to DMSO) PRL-1 value of C#C[C@]1(O)CC[C@H]2[C@@H]3CCc4cc(O)ccc4[C@H]3CC[C@@]21C [Ethinyl Estradiol] . 99

I'd like to know its % Phosphatase Activity (compared to DMSO) PRL-1. The compound in question is CC(=O)NO [Acetohydroxamic acid] 91

Need % Phosphatase Activity (compared to DMSO) PRL-1 of CC/C(=C(/CC)c1ccc(O)cc1)c1ccc(O)cc1 [Diethylstilbestrol] , thanks. 86

Can you share its % Phosphatase Activity (compared to DMSO) PRL-1? I mean this compound: NC(=O)NO [Hydroxyurea] 91

// query % Phosphatase Activity (compared to DMSO) PRL-1 value for entry CNNCc1ccc(C(=O)NC(C)C)cc1 [Procarbazine HCl] 103

GET /values?readout=% Phosphatase Activity (compared to DMSO) PRL-1&item= CCCCCCCCCCCCCCCC[N+](C)(C)C.[Br-] [Cetrimonium Bromide (CTAB)] 97

Need % Phosphatase Activity (compared to DMSO) PRL-1, item CC1(C)CCC(CN2CCN(c3ccc(C(=O)NS(=O)(=O)c4ccc(NCC5CCOCC5)c([N+](=O)[O-])c4)c(Oc4cnc5[nH]ccc5c4)c3)CC2)=C(c2ccc(Cl)cc2)C1 [ABT-199 (GDC-0199)] 68

Look at this compound and give its reported % Phosphatase Activity (compared to DMSO) PRL-1. CN1CCN2c3ncccc3Cc3ccccc3C2C1 (stereo not shown) [Mirtazapine] 92

# query: % Phosphatase Activity (compared to DMSO) PRL-1 of entry c1ccc(-c2ccc(C(c3ccccc3)n3ccnc3)cc2)cc1 (stereo not shown) [Bifonazole] 86

% Phosphatase Activity (compared to DMSO) PRL-1 for CO[C@H]1C(=O)[C@]2(C)[C@@H](OC)C[C@H]3OC[C@@]3(OC(C)=O)[C@H]2[C@H](OC(=O)c2ccccc2)[C@]2(O)C[C@H](OC(=O)[C@H](O)[C@@H](NC(=O)OC(C)(C)C)c3ccccc3)C(C)=C1C2(C)C [Cabazitaxel] ? 88

Need % Phosphatase Activity (compared to DMSO) PRL-1 of CC1CC(OC(=O)C(O)c2ccccc2)CC(C)(C)C1 (stereo not shown) [Cyclandelate] , thanks. 82

Fill in: % Phosphatase Activity (compared to DMSO) PRL-1 of C[C@@H]1CCO[C@H]2Cn3cc(C(=O)NCc4ccc(F)cc4F)c(=O)c(O)c3C(=O)N12 [Dolutegravir (GSK1349572)] is ___ 105

Given the entry CC1CCc2c(N3CCC(O)CC3)c(F)cc3c(=O)c(C(=O)O)cn1c23 (stereo not shown) [Nadifloxacin] , report its measured % Phosphatase Activity (compared to DMSO) PRL-1. 133

Which measured % Phosphatase Activity (compared to DMSO) PRL-1 value corresponds to CC(=O)OCC(=O)[C@@]1(O)[C@H](C)C[C@H]2[C@@H]3CCC4=CC(=O)C=C[C@]4(C)[C@@]3(F)[C@@H](O)C[C@@]21C [Dexamethasone Acetate] ? 90

Bench note: what % Phosphatase Activity (compared to DMSO) PRL-1 did CC12CCC(CC1=O)C2(C)C (stereo not drawn) [(+)-Camphor] show? 116

Given the entry CCCCOc1ccc(CC(=O)NO)cc1 [Bufexamac] , report its measured % Phosphatase Activity (compared to DMSO) PRL-1. 117

Which measured % Phosphatase Activity (compared to DMSO) PRL-1 value corresponds to CC(C)(Sc1cc(C(C)(C)C)c(O)c(C(C)(C)C)c1)Sc1cc(C(C)(C)C)c(O)c(C(C)(C)C)c1 [Probucol] ? 100

# % Phosphatase Activity (compared to DMSO) PRL-1 lookup, item CC(=O)Oc1ccccc1C(=O)O [Aspirin] 126

# input compound: CC(C)c1c(C(=O)Nc2ccccc2)c(-c2ccccc2)c(-c2ccc(F)cc2)n1CC[C@@H](O)C[C@@H](O)CC(=O)O [Atorvastatin Calcium] ; wanted: its % Phosphatase Activity (compared to DMSO) PRL-1 100

I'd like to know its % Phosphatase Activity (compared to DMSO) PRL-1. The compound in question is N=C(N)NC(=O)c1nc(Cl)c(N)nc1N [Amiloride hydrochloride dihydrate] 254

Look up % Phosphatase Activity (compared to DMSO) PRL-1 for this compound: CC(C)(O)c1ccccc1CC[C@@H](SCC1(CC(=O)O)CC1)c1cccc(/C=C/c2ccc3ccc(Cl)cc3n2)c1 [Montelukast Sodium] 172

GET /values?readout=% Phosphatase Activity (compared to DMSO) PRL-1&item= CCOc1nc2cccc(C(=O)OCc3oc(=O)oc3C)c2n1Cc1ccc(-c2ccccc2-c2noc(=O)[nH]2)cc1 [Azilsartan Medoxomil] 91

What value of measured % Phosphatase Activity (compared to DMSO) PRL-1 is listed for Cc1cc(O)ccc1Cl [Chlorocresol] ? 89

Name the reported % Phosphatase Activity (compared to DMSO) PRL-1 value associated with the compound CC(C)NCC(O)c1ccc(O)c(O)c1.Cl (stereo not shown) [Isoprenaline HCl] 114

Item CN(Cc1cnc2nc(N)nc(N)c2n1)c1ccc(C(=O)N[C@@H](CCC(=O)O)C(=O)O)cc1 [Methotrexate] has what recorded % Phosphatase Activity (compared to DMSO) PRL-1? 92

Suppose we examine the compound Nc1c(CC(=O)O)cccc1C(=O)c1ccc(Br)cc1 [Bromfenac Sodium] ; what % Phosphatase Activity (compared to DMSO) PRL-1 value has been reported? 86
